Target: Autotaxin (Homo sapiens, UniProt Q13822)
Construct: from tissue; host or cells: pooled human plasma
Test: LPA formation in pooled human plasma (ex vivo autotaxin inhibition)
Type: biochemical
Settings: 2 hours incubation, LPA 18:2 by LC/MS/MS, read-out: LPA formation (18:2) (IC50)
pIC50: −log10 of the molar value.
parameter-measured: pIC50

CN(c1nc(-c2ccc(F)cc2)c(C#N)s1)c1c(C2CC2)nn2ccc(N3CC4(CN(C(=O)[C@H]5CCOC5)C4)C3)cc12 [Example 22] :: ≥ 7.00
CCc1nn2c(C)cc(N3CCC4(CN(C[C@H](O)CO)C4)C3)cc2c1N(C)c1nc(-c2ccc(F)cc2)c(C#N)s1 [Example 68] :: 6.30 to 7.00
CCc1nn2ccc(N3CCC4(CCN(C(=O)N5CC(O)C5)C4)CC3)cc2c1N(C)c1nc(-c2ccc(F)cc2)c(C#N)s1 [Example 18] :: ≥ 7.00
CCc1nn2c(C)cc(N3CC4(CN(C(=O)[C@@H]5COC[C@H]5O)C4)C3)cc2c1N(C)c1nc(-c2ccc(F)cc2)c(C#N)s1 (stereo in doubt) [Example 74] :: 6.30 to 7.00
CCc1nn2c(C)cc(N3CC4(CN(C(=O)C5CCOCC5)C4)C3)cc2c1N(C)c1nc(-c2ccc(F)cc2)c(C#N)s1 [Example 41] :: ≥ 7.00

Ask: # return pIC50 for CCc1nn2c(C)cc(N3CC4(CN(C(=O)[C@@H]5CCOC5)C4)C3)cc2c1N(C)c1nc(-c2ccc(F)cc2)c(C#N)s1 [Example 40] , test system: Autotaxin (Homo sapiens, UniProt Q13822)
Result: ≥ 7.00

Ask: # return pIC50 for CCn1nc2nc(C)c(N3CC4(CN(C(=O)C(C)(C)O)C4)C3)cc2c1N(C)c1nc(-c2ccc(F)cc2)c(C#N)s1 [Compound 120] , test system: Autotaxin (Homo sapiens, UniProt Q13822)
Result: ≥ 7.00

Ask: # return pIC50 for CCc1nn2c(C)cc(N3CC4(CCN(C(=O)[C@H]5CCOC5)C4)C3)cc2c1N(C)c1nc(-c2ccc(F)cc2)c(C#N)s1 [Example 45] , test system: Autotaxin (Homo sapiens, UniProt Q13822)
Result: ≥ 7.00

Ask: # return pIC50 for CCc1nn2c(C)cc(N3CCN(CC(=O)N4CC[C@H](O)C4)CC3)cc2c1N(C)c1nc(-c2ccc(F)cc2)c(C#N)s1 [Example 26] , test system: Autotaxin (Homo sapiens, UniProt Q13822)
Result: 6.30 to 7.00

Ask: # return pIC50 for Cc1cc(N2CCC3(CN(C(=O)[C@H]4CCOC4)C3)C2)cc2c(N(C)c3nc(-c4ccc(F)cc4)c(C#N)s3)c(C3CC3)nn12 [Example 86] , test system: Autotaxin (Homo sapiens, UniProt Q13822)
Result: ≥ 7.00

Ask: # return pIC50 for Cc1cc(N2CC3(CN(C(=O)C4(O)CCOCC4)C3)C2)cc2c(N(C)c3nc(-c4ccc(F)cc4)c(C#N)s3)c(C3CC3)nn12 [Example 90] , test system: Autotaxin (Homo sapiens, UniProt Q13822)
Result: ≥ 7.00

Ask: # return pIC50 for Cc1cc(N2CCN(C[C@H](O)CO)CC2)cc2c(N(C)c3nc(-c4ccc(F)cc4)c(C#N)s3)c(C3CC3)nn12 [Example 83] , test system: Autotaxin (Homo sapiens, UniProt Q13822)
Result: 6.00 to 6.30
